B1: VH:VL chains; a variant is named by its letters at X, in order (parent)
chain 1: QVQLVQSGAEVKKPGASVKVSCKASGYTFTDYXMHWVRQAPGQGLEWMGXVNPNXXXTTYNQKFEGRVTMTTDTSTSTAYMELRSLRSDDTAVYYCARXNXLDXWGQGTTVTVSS
chain 2: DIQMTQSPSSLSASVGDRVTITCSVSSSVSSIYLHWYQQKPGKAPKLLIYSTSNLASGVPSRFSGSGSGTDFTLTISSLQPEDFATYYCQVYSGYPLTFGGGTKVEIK

- Variants of: B1
- assay text: yeast display scFab, FACS + sequencing
- experimental context: with MET
Some of the results follow. The true hit rate is not given.
parameter measured: antigen binding call

Look over these answered cases.
YRGRDALV    binds
AAKRGSWV    no binding
YRGRGALF    binds
YRGEGAWV    binds
DARGAYLV    no binding

Supply measured antigen binding call of ATGEGDWS in your reply.
no binding

Supply measured antigen binding call of YRAGDAAD in your reply.
binds

Supply measured antigen binding call of DTGTGDVA in your reply.
no binding

Supply measured antigen binding call of DKTGDDGS in your reply.
no binding

Supply measured antigen binding call of AGGTSYSV in your reply.
no binding

Supply measured antigen binding call of YRRGGSGY in your reply.
binds
